Each entry below carries its recorded kon.
- ASSAY_TARGET: T1, Human CD137 ECD (human)
- T1 construct: also called human CD137 extracellular domain; recombinant human CD137
- T1 sequence (chain, as listed by the source limits assumed): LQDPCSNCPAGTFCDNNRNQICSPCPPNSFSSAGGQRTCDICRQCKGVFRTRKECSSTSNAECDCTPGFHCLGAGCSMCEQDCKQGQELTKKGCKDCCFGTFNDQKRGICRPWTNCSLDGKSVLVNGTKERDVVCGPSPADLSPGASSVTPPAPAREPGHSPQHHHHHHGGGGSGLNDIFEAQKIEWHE
- TEST_PROTOCOL: SPR Biacore T200, 37 C, Ab captured on anti-human Fc, antigen as analyte;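 note: recombinant human CD137 flowed over antibodies held by amine-coupled anti-human Fc on a CM4 chip, run in ACES pH 7.4 buffer with 150 mM NaCl and 0.05% Tween 20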
Just the number in M⁻¹ s⁻¹, nothing appended.

H1571L0581 (antibody, V domains shown, Dual-Ig, IgG; also called dBBDu183H1571/dBBDu072L0581) VH: QVQLVESGGGLVQPGRSLRLSCAASGFKFSNVWFHWVRQAPGKGLEWVAQIKDKYNAYATYYAPSVKGRFTISRDDSKNSIYLQMNSLKTEDTAVYYCHYVHYASASTLLPAFGVDAWGQGTTVTVSS VL: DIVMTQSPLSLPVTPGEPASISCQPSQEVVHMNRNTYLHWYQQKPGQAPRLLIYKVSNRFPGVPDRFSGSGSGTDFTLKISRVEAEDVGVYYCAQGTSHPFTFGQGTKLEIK = 12100

Looking up H1649L0943 (antibody, V domains shown, Dual-Ig, IgG; also called dBBDu183H1649/dBBDu072L0943) VH: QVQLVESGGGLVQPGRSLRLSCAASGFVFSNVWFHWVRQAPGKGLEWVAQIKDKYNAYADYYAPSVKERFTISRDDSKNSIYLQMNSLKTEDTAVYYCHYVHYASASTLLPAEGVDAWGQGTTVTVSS VL: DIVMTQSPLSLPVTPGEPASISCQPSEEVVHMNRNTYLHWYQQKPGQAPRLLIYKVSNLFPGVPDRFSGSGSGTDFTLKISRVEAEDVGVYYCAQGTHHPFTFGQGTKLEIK , I found its kon recorded as 14300

So, H1643L0581 (antibody, V domains shown, Dual-Ig, IgG; also called H1643L581; dBBDu183H1643/dBBDu072L0581) VH: QVQLVESGGGLVQPGRSLRLSCAASGFKFSNVWFHWVRQAPGKGLEWVAQIKDYYNAYAAYYAPSVKGRFTISRDDSKNSIYLQMNSLKTEDTAVYYCHYVHYASASTLLPAEGVDAWGQGTTVTVSS VL: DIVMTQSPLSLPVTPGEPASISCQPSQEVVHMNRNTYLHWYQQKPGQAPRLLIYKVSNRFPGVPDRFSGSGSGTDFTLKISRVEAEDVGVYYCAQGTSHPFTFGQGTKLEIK ? Its kon was 12300
